MEASUREMENT NOTES: Caco-2 bidirectional permeability assay
Format: in vitro ADME
MEASUREMENT PARAMETERS: human, Caco-2, Caco-2, B-A; read-out: % Recovery B-A
MEASURED METRIC: recovery (%)
Field: numeric (%). Do not append units.

Annotate the molecule "C=CC(=O)Nc1cccc(-c2nc(Nc3cccc(N4CCOCC4)c3)nc3[nH]ncc23)c1" with its measured recovery.
84

* * *

MEASUREMENT NOTES: Plasma stability assay
Type: in vitro ADME
Design: dose or concentration left out as unconfirmed
MEASUREMENT PARAMETERS: mouse plasma
Procedure: The representative compound, compound 3, was also assessed in a plasma stability assay. Briefly, the compound was present at a concentration […] in plasma from three mammalian species (human, rat, and mouse). The concentration of intact drug (i.e. unmodified drug) at the indicated time points was determined using a LC-MS/MS assay. The data are consistent with good drug stability under the conditions tested.
MEASURED METRIC: half-life

Return value of half-life for input C=CC(=O)Nc1cccc(-c2nc(Nc3cccc(N4CCOCC4)c3)nc3[nH]ncc23)c1 [Compound 3] , no commentary.
> 2 h

Hello, the source for this data is patent US20150252048A1, in case you need it.
